B1: ZNF232 (parent)
chain: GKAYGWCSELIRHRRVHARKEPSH

# Variants of: B1
# EXPERIMENT_NOTES: protein stability index of a GFP-peptide fusion (GPS, HEK-293T) (PSI 1-6); higher = more stable;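 further: lentivirally expressed fusions sorted by FACS into six bins by GFP to DsRed ratio, PSI derived from sequencing read proportions per bin multiplied by bin number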
# EXPERIMENTAL_CONTEXT: c terminus: a fixed tail appended
Parameter threshold = 3. Response is yes when protein stability index meets or exceeds it, else no.

Is protein stability index for A18P at or above 3?
yes

Is protein stability index for R19M at or above 3?
yes
